target: RSV protein G (recombinant G protein) (respiratory syncytial virus (RSV), strain not stated); assay: SPR (Biacore), Fab on recombinant antigen
Assay Endpoint: kon (M⁻¹ s⁻¹)
Only the number, expressed in M⁻¹ s⁻¹, is required.

Value of kon reported for the binder Fab fragment of antibody clone 796 (Fab) VH: QVQLVESGGGVVQPGRSLRLSCAASGFSFSHFGMHWVRQVPGKGLEWVAIISYDGNNVHYADSVKGRFTISRDNSKNTLFLQMNSLRDDDTGVYYCAKDDVATDLAAYYYFDVWGRGTLVTVSS light: DIVMTQTPLSLSVTPGQPASISCRSSQSLLRSDGKTFLYWYLQKPGQSPQPLMYEVSSRFSGVPDRFSGSGSGADFTLNISRVETEDVGIYYCMQGLKIRRTFGPGTKVEIKRTVAAPSVFIFPPSDEQLKSGTASVVCLLNNFYPREAKVQWKVDNALQSGNSQESVTEQDSKDSTYSLSSTLTLSKADYEKHKVYACEVTHQGLSSPVTKSFNRGEC is 833000
